# Assay Remarks: Mouse PK test: plasma concentration after intravenous or oral administration
# Assay type: in vivo, mice (C57BL/6J)
# Condition Parameters: C57BL/6J, in vivo, male mice, oral 50 mg/kg vs intravenous 1 mg/kg, bioavailability, read-out: F
Starred links: 1 amine or outer side, 2 acyl side, 3 side chain; linkers in the order of their positions; H or OH if unused. Non-standard residues stand in square brackets, D forms with d. Residues, ends and D or L forms follow the SMILES beside them. *: point of attachment. NMedβ3hAla = C[C@H](CC(=O)[*:2])N(C)[*:1]; NMeF = CN[C@@H](Cc1ccccc1)C(=O)O; NMeI = CC[C@H](C)[C@H](NC)C(=O)O; hPhe = N[C@@H](CCc1ccccc1)C(=O)O; NMeβAla = CN(CCC(=O)[*:2])[*:1]; NMeL = CN[C@@H](CC(C)C)C(=O)O; Abu = CC[C@H](N)C(=O)O; Sar = CNCC(=O)O; tBu = CC(C)(C)*

Compound	bioavailability / %
CC[C@@H]1NC(=O)[C@H](CC(C)C)N(C)C(=O)[C@H](COC(C)(C)C)NC(=O)[C@H]([C@@H](C)CC)N(C)C(=O)[C@H](CCc2ccccc2)NC(=O)[C@H](Cc2ccccc2)N(C)C(=O)[C@H](C(C)C)NC(=O)[C@H](CC(C)C)N(C)C(=O)[C@H](CC(C)C)NC(=O)CCN(C)C(=O)C[C@@H](C)N(C)C(=O)CN(C)C(=O)[C@H](CC(C)C)N(C)C(=O)[C@@H]2CCCN2C1=O [pd065] (cyclo([Abu]P[NMeL][Sar][NMedβ3hAla][NMeβAla]L[NMeL]V[NMeF][hPhe][NMeI]S(tBu)[NMeL]))	26

* * *

The entries below are paired with their reported Papp A→B.
# Assay Remarks: Membrane permeability test using Caco-2 cells with preincubation
# Type: in vitro ADME
# Condition Parameters: Caco-2; preincubation 20 to 24 hours; Apical FaSSIF/HBSS pH 6.0, Basal HBSS 4% BSA pH 7.4; 180 minutes; read-out: Caco2 Papp
# Procedure: The permeability coefficient (Caco-2 Papp (cm/sec)) is calculated using a numerical expression 1. [Expression 1] Papp = (1)/(C1 (0) × S) × (dQ)/(dt) [formula] dQ/dt represents the permeation rate of drug (the amount of drug appearing on the Basal side per unit time), S represents the total surface area of cells, and C1(0) represents the concentration of drug added on the Apical side. […]
Starred links: 1 amine or outer side, 2 acyl side, 3 side chain; linkers in the order of their positions; H or OH if unused. Positions of bridges follow the written chain, without caps; N, C: chain ends. Non-standard residues stand in square brackets, D forms with d. Residues, ends and D or L forms follow the SMILES beside them. *: point of attachment. NMeF = CN[C@@H](Cc1ccccc1)C(=O)O; NMeGABA = CN(CCCC(=O)[*:2])[*:1]; NMeI = CC[C@H](C)[C@H](NC)C(=O)O; hPhe = N[C@@H](CCc1ccccc1)C(=O)O; NMeD = CN[C@@H](CC(=O)O)C(=O)O; NMeL = CN[C@@H](CC(C)C)C(=O)O; NMeV = CN[C@H](C(=O)O)C(C)C; NMeA = CN[C@@H](C)C(=O)O; Piperidide = C1CCN(*)CC1; tBu = CC(C)(C)*

Compound	Readout Unit	Papp A→B
CC[C@H](C)[C@@H]1NC(=O)[C@H](COC(C)(C)C)NC(=O)[C@H]([C@@H](C)O)NC(=O)[C@H](Cc2ccccc2)N(C)C(=O)[C@H](C)N(C)C(=O)[C@H](CC(C)C)N(C)C(=O)[C@H](CCc2ccccc2)NC(=O)[C@@H]2CCCN2C(=O)[C@H]([C@@H](C)CC)NC(=O)[C@H](CC(C)C)N(C)C(=O)[C@H](C)NC(=O)CCCN(C)C(=O)C[C@@H](C(=O)N2CCCCC2)NC(=O)[C@H](CC(C)C)N(C)C1=O [pd022] ([NMeGABA]A[NMeL]IP[hPhe][NMeL][NMeA][NMeF]TS(tBu)I[NMeL]D-Piperidide; lactam N-14)	×10⁻⁶ cm/s	0.15
CC[C@H](C)[C@@H]1NC(=O)[C@H](CC(C)C)N(C)C(=O)[C@H](CC(C)C)NC(=O)[C@H](C)N(C)C(=O)C[C@@H](C(=O)N2CCCCC2)N(C)C(=O)[C@H](C)N(C)C(=O)[C@H](CC(C)C)NC(=O)[C@H](C(C)C)N(C)C(=O)[C@H](CC(C)C)N(C)C(=O)CNC(=O)[C@H]([C@@H](C)CC)N(C)C(=O)[C@H](Cc2ccccc2)N(C)C(=O)[C@H](C)NC(=O)[C@H](Cc2ccccc2)N(C)C1=O [pd079] ([NMeA]L[NMeL]I[NMeF]A[NMeF][NMeI]G[NMeL][NMeV]L[NMeA][NMeD]-Piperidide; lactam N-14)	×10⁻⁶ cm/s	0.12
